system.under.test: T1, LILRB1-His
T1 construct: also called His-tagged LILRB1; recombinant LILRB1 protein
method: ELISA on recombinant His-tagged protein, OD450
test.readout: binding result

Antibody 3C12 (antibody, V domains shown, Mouse hybridoma mAb purified from ascites) VH: QVQLKESGPGLVAPSQSLSITCTVSGFSLTSYGVHWVRQSPGKGLEWLGVIWAGGTTNYNSALMSRLSISKDNSKSQVFLKMNSLQADDTAMYYCARGGYGHSMDYWGQGTSVTVSS VL: DIVMTQSHKFMSTSVGDRVSITCKASQDVSNAVAWYQQKPGQSPKLLIYSASYRYTGVPDRFTGSGSGTDFIFTISSVQAEDLAVYYCQQHYSTPFTFGSGTKLEIK = no binding
Antibody 12D8 (antibody, V domains shown, Mouse hybridoma mAb purified from ascites) VH: QVQLRQSGPGLVQPSQSLSITCTVSGFSLTSYGVHWVRQSPGKGLEWLGVIWSGGITDYNAAFISRLSISKDNSKSQVFFRMNSLQTNDTAIYYCAREIYGNPDYWGQGTTLTVSS VL: DIVMTQSHKFMSTSVGDRVSITCKASQDVSIAVAWFQQKPGQSPKLLIYSASYRYTGVPDRFSGSGSGTDFTFTISSVQAEDLAVYYCQQHYSTPRTFGGGTKLEIK = no binding
Antibody 9H6 (antibody, V domains shown, Mouse hybridoma mAb purified from ascites) VH: EVQLQQSGAELVRPGALVKLSCKASGFNVKDYYMHWVKQRPEQGLEWIGWIDPKNGNGIYDPKFQGKASITADTSSNTAYLQLSSLTSEDTSVYYCARGDYFGSSYLFAYWGQGTLVTVSA VL: DIVMTQSHKFMSTSVGDRVSITCKASQDVSTAVAWYQQKPGQSPKLLIYSASYRYTGVPDRFTGSGSGTDFTFTISSVQAEDLAVYYCQQHYSTPWTFGGGAKLEIK = no binding

Ref: patent US20240109962A1
